Assayed System: T1, Mex67LRR-NTF2L;Mtr2 (Saccharomyces cerevisiae;Saccharomyces …, UniProt Q99257;P34232 101-487;1-184, |)
T1 sequence 1: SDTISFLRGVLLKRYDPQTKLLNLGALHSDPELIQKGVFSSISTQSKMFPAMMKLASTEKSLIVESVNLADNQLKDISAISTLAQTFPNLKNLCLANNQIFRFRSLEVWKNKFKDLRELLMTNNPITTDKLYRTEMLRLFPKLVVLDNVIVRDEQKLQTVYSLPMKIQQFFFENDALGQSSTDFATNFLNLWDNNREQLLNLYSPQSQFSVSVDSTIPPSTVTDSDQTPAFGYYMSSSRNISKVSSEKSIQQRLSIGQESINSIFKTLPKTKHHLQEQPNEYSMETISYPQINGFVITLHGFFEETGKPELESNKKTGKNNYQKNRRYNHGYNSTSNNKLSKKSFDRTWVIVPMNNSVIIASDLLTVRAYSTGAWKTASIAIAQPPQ
T1 sequence 2: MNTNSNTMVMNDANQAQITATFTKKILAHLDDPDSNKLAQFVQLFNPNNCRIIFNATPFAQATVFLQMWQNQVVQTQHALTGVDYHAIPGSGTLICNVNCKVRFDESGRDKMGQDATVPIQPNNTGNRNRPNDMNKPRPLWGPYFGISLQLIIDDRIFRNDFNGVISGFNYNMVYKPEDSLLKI
Protocol Text: fluorescence anisotropy; 20 mM Tris pH 8.0, 50 mM NaCl, 10 nM DY-547 RNA; temperature not stated
Particulars: protein: recombinant;recombinant; tags: His6 removed by TEV;; copies: 1;1
Measured Property: Kd (µM)
Please give a number only; it is taken to be in µM.

Request: Quickly give me recorded Kd for AAAAAAAAAAAAAAA (ssRNA) [A15]
Result: 0.34
